Molecular target: Dual specificity protein kinase TTK (Homo sapiens, UniProt P33981)
Sequence (P33981 whole entry): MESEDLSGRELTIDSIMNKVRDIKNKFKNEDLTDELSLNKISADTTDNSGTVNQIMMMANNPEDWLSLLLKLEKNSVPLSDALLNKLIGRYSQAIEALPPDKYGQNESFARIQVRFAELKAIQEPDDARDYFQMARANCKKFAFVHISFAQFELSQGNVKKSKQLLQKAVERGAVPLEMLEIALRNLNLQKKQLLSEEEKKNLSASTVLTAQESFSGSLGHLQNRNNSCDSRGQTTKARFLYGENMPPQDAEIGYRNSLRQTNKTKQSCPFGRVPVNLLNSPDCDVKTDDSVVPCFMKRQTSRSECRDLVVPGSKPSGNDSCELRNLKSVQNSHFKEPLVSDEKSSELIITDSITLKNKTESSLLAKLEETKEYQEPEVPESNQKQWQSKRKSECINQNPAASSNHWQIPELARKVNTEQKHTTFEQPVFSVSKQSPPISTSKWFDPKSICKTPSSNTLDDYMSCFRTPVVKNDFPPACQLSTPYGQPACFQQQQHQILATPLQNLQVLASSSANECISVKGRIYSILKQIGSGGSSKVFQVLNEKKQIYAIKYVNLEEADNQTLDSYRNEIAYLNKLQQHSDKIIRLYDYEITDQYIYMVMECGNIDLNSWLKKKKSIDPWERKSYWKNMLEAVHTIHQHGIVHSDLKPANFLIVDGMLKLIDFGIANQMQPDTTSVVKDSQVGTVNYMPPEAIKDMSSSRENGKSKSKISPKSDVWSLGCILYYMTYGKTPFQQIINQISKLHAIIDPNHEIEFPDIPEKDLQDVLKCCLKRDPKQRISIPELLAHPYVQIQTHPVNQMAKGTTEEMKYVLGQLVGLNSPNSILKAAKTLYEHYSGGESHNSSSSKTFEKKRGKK
pKd: −log10 of the molar value.
Readout Name: pKd

# return recorded pKd for input CCc1ccc(C(=O)Nc2cc(F)cc(C(F)(F)F)c2)cc1-c1cc(C)cc(-c2cnc3cnccn23)c1
< 6.00
